- Tested on: P. aeruginosa ATTC 27853
- protocol-text: microbe, parasite or virus in culture
- conditions: ATTC 27853, 18 h
Where a SMILES comes first, the peptide text is derived from it. Bridges are numbered along the chain shown (N, C = ends). [ ]: non-standard residue; d: D form. The star is where a group is joined. Hexanoyl(6-Ph) = O=C(CCCCCc1ccccc1)*; dDab = NCC[C@@H](N)C(=O)O; Octanoyl = CCCCCCCC(=O)*; Orn = NCCC[C@H](N)C(=O)O; Dab = NCC[C@H](N)C(=O)O
test-readout: MIC P. aeruginosa ATTC 27853 (µg/mL)
Could you give me the number in µg/mL? Just the number is fine.

Prompt: Would you mind telling me what MIC P. aeruginosa ATTC 27853 value was observed for CCCCCCCC(=O)N[C@H](C(=O)N[C@@H](CCN)C(=O)N[C@H]1CCCNC(=O)[C@H]([C@@H](C)O)NC(=O)[C@H](CCN)NC(=O)[C@H](CCN)NC(=O)[C@H](CC(C)C)NC(=O)[C@@H](Cc2ccccc2)NC(=O)[C@H](CCN)NC1=O)[C@@H](C)O [Compound 17] (Octanoyl-T[Dab][Orn][Dab][dF]L[Dab][Dab]T; lactam 3-C) ?
Response: 2

Prompt: Now this one: CCCCCCCC(=O)N[C@H](C(=O)N[C@@H](CCCCN)C(=O)N[C@H]1CCNC(=O)[C@H]([C@@H](C)O)NC(=O)[C@H](CCN)NC(=O)[C@H](CCN)NC(=O)[C@H](CC(C)C)NC(=O)[C@@H](Cc2ccccc2)NC(=O)[C@H](CCN)NC1=O)[C@@H](C)O [Compound 42] (Octanoyl-TK[Dab][Dab][dF]L[Dab][Dab]T; lactam 3-C)
Response: 4

Prompt: Now this one: CC(C)C[C@@H]1NC(=O)[C@@H](Cc2ccccc2)NC(=O)[C@H](CCN)NC(=O)[C@@H](NC(=O)[C@@H](CCN)NC(=O)[C@@H](NC(=O)CCCCCc2ccccc2)[C@@H](C)O)CCNC(=O)[C@H]([C@@H](C)O)NC(=O)[C@H](CCN)NC(=O)[C@H](CCN)NC1=O [Compound 25] ({Hexanoyl(6-Ph)}-T[dDab][Dab][Dab][dF]L[Dab][Dab]T; lactam 3-C)
Response: 2

###

- System: K. pneumoniae ATCC 700603
- protocol-text: microbe, parasite or virus in culture
- conditions: ATCC 700603, 18 h
Where a SMILES comes first, the peptide text is derived from it. Bridges are numbered along the chain shown (N, C = ends). [ ]: non-standard residue; d: D form. The star is where a group is joined. Octanoyl = CCCCCCCC(=O)*; Dab = NCC[C@H](N)C(=O)O
test-readout: MIC K. pneumoniae ATCC 700603 (µg/mL)
Could you give me the number in µg/mL? Just the number is fine.

Prompt: Would you mind telling me what MIC K. pneumoniae ATCC 700603 value was observed for CCCCCCCC(=O)N[C@H](C(=O)N[C@@H](CCN)C(=O)N[C@H]1CCNC(=O)[C@H]([C@@H](C)O)NC(=O)[C@H](CCN)NC(=O)[C@H](CCN)NC(=O)[C@H](CC(C)C)NC(=O)[C@@H](Cc2ccccc2)NC(=O)[C@H](CCN)NC1=O)[C@@H](C)O [Compound 8] (Octanoyl-T[Dab][Dab][Dab][dF]L[Dab][Dab]T; lactam 3-C) ?
Response: 2

Every entry's value here was drawn from paper PMC6384738.
